Test: AUC(last) in rat at 1 mg/kg, iv measured up to 24 hrs by LC-MS/MS analysis
Format: ADME, organism-based
Set-up: dose 1 mg/kg, route intravenous, time 0 - last
Settings: in vivo
RECORDED ENDPOINT: AUC(0-t) at 24 h (µM·h)
Numbers only here, please. The scale is µM·h.

The cases that follow already have their AUC(0-t) at 24 h on record.
>>> observed_result("COC(=O)N[C@H](C(=O)N1CCC[C@H]1c1ncc(-c2ccc3c(c2)OCC(C)(C)COc2cc(-c4cnc([C@@H]5CCCN5C(=O)[C@@H](NC(=O)OC)C(C)C)[nH]4)ccc2-3)[nH]1)C(C)C")
1.1
>>> observed_result("COC(=O)N[C@H](C(=O)N1CCC[C@H]1c1ncc(-c2ccc3c(ccc4cc(-c5cnc([C@@H]6CCCN6C(=O)[C@@H](NC(=O)OC)C(C)C)[nH]5)sc43)c2)[nH]1)C(C)C")
2
>>> observed_result("COC(=O)N[C@H](C(=O)N1CCC[C@H]1c1nc(Cl)c(-c2ccc3c(c2)OCC(C)(C)COc2cc(-c4[nH]c([C@@H]5CCCN5C(=O)[C@@H](NC(=O)OC)C(C)C)nc4Cl)ccc2-3)[nH]1)C(C)C")
0.43
>>> observed_result("COC(=O)N[C@H](C(=O)N1CCC[C@H]1c1ncc(-c2ccc3c(c2)CCc2cc(-c4cnc([C@@H]5CCCN5C(=O)[C@@H](NC(=O)OC)C(C)C)[nH]4)sc2-3)[nH]1)C(C)C")
2

Now consider the entry below.
Looking up COC(=O)N[C@H](C(=O)N1CCC[C@H]1c1ncc(-c2ccc3c(c2)OCc2cc(-c4cnc([C@@H]5CCCN5C(=O)[C@@H](NC(=O)OC)C(C)C)[nH]4)sc2-3)[nH]1)C(C)C , I see its AUC(0-t) at 24 h listed as 2
